# Target Under Test: B1R receptor of the rat (CHO K1 cells stably transfected with the B1R gene of the rat) (Rattus norvegicus, UniProt P97583)
# Construct: expressed in transfected cells; host or cells: CHO K1 cells (Chinese hamster ovary), stably transfected
# Sequence (P97583 whole entry): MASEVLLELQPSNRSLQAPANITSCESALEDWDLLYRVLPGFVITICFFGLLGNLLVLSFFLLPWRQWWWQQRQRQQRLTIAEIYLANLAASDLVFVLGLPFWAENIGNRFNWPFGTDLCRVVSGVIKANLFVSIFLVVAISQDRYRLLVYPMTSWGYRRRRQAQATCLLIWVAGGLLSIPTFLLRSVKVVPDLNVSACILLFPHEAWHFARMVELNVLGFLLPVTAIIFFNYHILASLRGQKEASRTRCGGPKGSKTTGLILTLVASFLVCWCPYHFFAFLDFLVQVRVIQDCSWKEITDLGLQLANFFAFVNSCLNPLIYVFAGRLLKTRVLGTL
# Protocol Description: Functional study on the bradykinin receptor 1 (B1R), Ca2+ fluorescence (Fluo-4) FLIPR/Novostar assay, rB1R cells
# Format: cell-based
# Experimental Context: CHO-K1, 10 μM, read-out: % Inhibition (r-B1R) at 10 μM
# Source text: The agonistic or antagonistic action of substances can be quantified on the bradykinin receptor 1 (B1R) of the species human and rat using ectopically expressing cell lines (CHO K1 cells) and with the aid of a Ca^2+-sensitive dye (Fluo-4) using a fluorescent imaging plate reader (FLIPR). […] The agonistic or antagonistic action of substances can be determined on the bradykinin receptor 1 (B1R) of the species human and rat using the following assay. […]
Metric Name: inhibition at 10 µM (%)

>  <Compound>
CN(C(=O)c1ccc2c(c1)C(NC(=O)Nc1cccc(Cl)c1Cl)CCO2)C1CCN(c2ccncc2)CC1 (stereo not shown)

>  <Unit Abbrev>
%

>  <Measured Value>
102

$$$$
>  <Compound>
O=C(NCCC1CCN(c2ccncc2)CC1)c1ccc2c(c1)C(NC(=O)c1ccccc1Cl)CC2 (stereo not shown)

>  <Unit Abbrev>
%

>  <Measured Value>
104

$$$$
>  <Compound>
CC(C)CC(=O)NC1CCOc2ccc(C(=O)N(C)C3CCN(c4ccncc4)CC3)cc21 (stereo not shown)

>  <Unit Abbrev>
%

>  <Measured Value>
109

$$$$
>  <Compound>
Cc1ccc(F)c(C(=O)NC2CCCc3ccc(C(=O)N(C)C4CCN(c5ccncc5)CC4)cc32)c1Cl (stereo not shown)

>  <Unit Abbrev>
%

>  <Measured Value>
111

$$$$

###

# Target Under Test: B1R receptor of the rat (CHO K1 cells stably transfected with the B1R gene of the rat) (Rattus norvegicus)
# Construct: expressed in transfected cells; host or cells: CHO K1 cells (Chinese hamster ovary), stably transfected
# Protocol Description: Functional study on the bradykinin receptor 1 (B1R), Ca2+ fluorescence (Fluo-4) FLIPR/Novostar assay, rB1R cells
# Assay type: cell-based
# Experimental Context: CHO-K1, 10 μM, read-out: % inhibition (rat B1R) at 10 μM
Metric Name: inhibition at 10 µM (%)

>  <Molecule>
CN(C(=O)c1ccc2c(c1)[C@H](NC(=O)[C@@H]1CCCc3ccccc31)CC2)C1CCN(c2ccncc2)CC1 [Example H-70]

>  <inhibition at 10 µM / %>
96

$$$$
>  <Molecule>
CN(C(=O)c1ccc2c(c1)[C@H](NC(=O)c1cncnc1)CC2)C1CCN(c2ccncc2)CC1 [Example H-31]

>  <inhibition at 10 µM / %>
70

$$$$

A = Cc1cc(N2CCC(N(C)C(=O)c3cc4c(cc3F)[C@H](NC(=O)c3cc(C)on3)CC4)CC2)nc(C)n1 [Example H-143]
B = CN(C(=O)c1ccc2c(c1)CC[C@H]2NS(=O)(=O)c1ccccc1Cl)C1CCN(c2ccncc2)CC1 [Example H-16]
Which value of inhibition at 10 µM is greater, the one for A or the one for B ? // respond with label for picked entry B

###

# Target Under Test: B1R receptor of the rat (CHO K1 cells stably transfected with the B1R gene of the rat) (Rattus norvegicus)
# Construct: expressed in transfected cells; host or cells: CHO K1 cells (Chinese hamster ovary), stably transfected
# Protocol Description: Functional study on the bradykinin receptor 1 (B1R), Ca2+ fluorescence (Fluo-4) FLIPR/Novostar assay, rB1R cells
# Type: cell-based
# Experimental Context: 10 μM
Metric Name: % Inhibition (r-B1R) at 10 μM (%)

>  <Molecule>
CN(C(=O)c1ccc2c(c1)C(N(C)C(=O)c1cc(F)ccc1Cl)CC2)C1CCN(c2ccncc2)CC1 (stereo not drawn)

>  <% Inhibition (r-B1R) at 10 μM (%)>
104

$$$$
>  <Molecule>
CN(C(=O)c1ccc2c(c1)C(NC(=O)c1c(Cl)cccc1C(F)(F)F)CCC2)C1CCN(c2ccncc2)CC1 (stereo not drawn)

>  <% Inhibition (r-B1R) at 10 μM (%)>
110

$$$$
>  <Molecule>
CN(C(=O)c1ccc2c(c1)C(NC(=O)c1c(Cl)cccc1C(F)(F)F)CC2(C)C)C1CCN(c2ccncc2)CC1 (stereo not drawn)

>  <% Inhibition (r-B1R) at 10 μM (%)>
104

$$$$
>  <Molecule>
CN(C(=O)NC1CC(C)(C)c2ccc(C(=O)N(C)C3CCN(c4ccncc4)CC3)cc21)c1ccccc1Cl (stereo not drawn)

>  <% Inhibition (r-B1R) at 10 μM (%)>
107

$$$$
>  <Molecule>
CN(C(=O)NC1CCOc2ccc(C(=O)N(C)C3CCN(c4ccncc4)CC3)cc21)c1ccccc1Cl (stereo not drawn)

>  <% Inhibition (r-B1R) at 10 μM (%)>
101

$$$$
>  <Molecule>
CN(C(=O)c1ccc2c(c1)C(NC(=O)c1cc(F)ccc1Cl)CC2(C)C)C1CCN(c2ccncc2)CC1 (stereo not drawn)

>  <% Inhibition (r-B1R) at 10 μM (%)>
104

$$$$

###

# Target Under Test: human B1R receptor (CHO K1 cells stably transfected with the human B1R gene) (Homo sapiens, UniProt P46663)
# Construct: expressed in transfected cells; host or cells: CHO K1 cells (Chinese hamster ovary), stably transfected
# Sequence (P46663 whole entry): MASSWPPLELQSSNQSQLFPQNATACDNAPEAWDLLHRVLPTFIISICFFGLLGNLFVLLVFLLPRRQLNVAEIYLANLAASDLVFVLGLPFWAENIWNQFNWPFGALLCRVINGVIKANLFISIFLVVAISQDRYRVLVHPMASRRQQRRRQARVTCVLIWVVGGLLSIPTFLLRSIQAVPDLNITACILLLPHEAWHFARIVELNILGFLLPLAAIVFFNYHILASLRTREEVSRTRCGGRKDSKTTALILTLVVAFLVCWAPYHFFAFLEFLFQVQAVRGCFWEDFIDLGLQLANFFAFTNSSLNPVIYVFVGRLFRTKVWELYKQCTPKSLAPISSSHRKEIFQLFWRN
# Protocol Description: Functional study on the bradykinin receptor 1 (B1R), Ca2+ fluorescence (Fluo-4) FLIPR/Novostar assay, hB1R cells
# Assay type: cell-based
# Experimental Context: CHO-K1, read-out: % Inhibition (h-B1R) at 10 μM
Metric Name: inhibition at 10 µM (%)

>  <Molecule>
CN(C(=O)c1ccc2c(c1)C(NC(=O)c1cnccc1C(F)(F)F)CCO2)C1CCN(c2ccncc2)CC1 (stereo not shown)

>  <Metric Name>
inhibition at 10 µM

>  <Measured Value>
99

$$$$
>  <Molecule>
CN(C(=O)c1ccc2c(c1)C(NC(=O)c1c(Cl)cccc1C(F)(F)F)CC2)C1CCN(c2ccc3cnccc3c2)CC1 (stereo not shown)

>  <Metric Name>
inhibition at 10 µM

>  <Measured Value>
84

$$$$
>  <Molecule>
CN(C(=O)c1ccc2c(c1)C(NC(=O)C(C)(C)c1ccccc1Cl)CC2)C1CCN(c2ccncc2)CC1 (stereo not shown)

>  <Metric Name>
inhibition at 10 µM

>  <Measured Value>
98

$$$$
>  <Molecule>
CN(C(=O)NC1CCc2ccc(C(=O)N(C)C3CCN(c4ccncc4)CC3)cc21)c1ccccc1Cl (stereo not shown)

>  <Metric Name>
inhibition at 10 µM

>  <Measured Value>
100

$$$$
>  <Molecule>
O=C(CCC1CCCC1)NC1CCc2ccc(C(=O)NCCC3CCN(c4ccncc4)CC3)cc21 (stereo not shown)

>  <Metric Name>
inhibition at 10 µM

>  <Measured Value>
100

$$$$
>  <Molecule>
CN(C(=O)c1ccc2c(c1)C(NC(=O)c1sccc1Cl)CC2)C1CCN(c2ccncc2)CC1 (stereo not shown)

>  <Metric Name>
inhibition at 10 µM

>  <Measured Value>
99

$$$$
>  <Molecule>
Cc1cccc(C)c1C(=O)NC1CC(C)(C)c2ccc(C(=O)N(C)C3CCN(c4ccncc4)CC3)cc21 (stereo not shown)

>  <Metric Name>
inhibition at 10 µM

>  <Measured Value>
99

$$$$
>  <Molecule>
CN(C(=O)NC1CC(C)(C)c2ccc(C(=O)N(C)C3CCN(c4ccncc4)CC3)cc21)c1ccccc1Cl (stereo not shown)

>  <Metric Name>
inhibition at 10 µM

>  <Measured Value>
99

$$$$
>  <Molecule>
CN(C(=O)c1ccc2c(c1)C(NC(=O)c1cncnc1)CC2)C1CCN(c2ccncc2)CC1 (stereo not shown)

>  <Metric Name>
inhibition at 10 µM

>  <Measured Value>
96

$$$$
>  <Molecule>
Cc1cc(N2CCC(N(C)C(=O)c3ccc4c(c3)C(N(C)C(=O)c3c(Cl)cccc3C(F)(F)F)CC4)CC2)cc(C)n1 (stereo not shown)

>  <Metric Name>
inhibition at 10 µM

>  <Measured Value>
91

$$$$
>  <Molecule>
CC(C)CC(=O)NC1CCc2ccc(C(=O)NCCC3CCN(c4ccncc4)CC3)cc21 (stereo not shown)

>  <Metric Name>
inhibition at 10 µM

>  <Measured Value>
99

$$$$
>  <Molecule>
CC(C)CC(=O)NC1CCc2ccc(C(=O)N(C)C3CCN(c4ccc5cnccc5c4)CC3)cc21 (stereo not shown)

>  <Metric Name>
inhibition at 10 µM

>  <Measured Value>
99

$$$$
>  <Molecule>
Cc1cc(N2CCC(N(C)C(=O)c3ccc4c(c3)C(NC(=O)CC(C)C)CC4)CC2)cc(C)n1 (stereo not shown)

>  <Metric Name>
inhibition at 10 µM

>  <Measured Value>
100

$$$$
>  <Molecule>
CN(C(=O)c1ccc2c(c1)C(N(C)C(=O)c1sccc1Cl)CC2)C1CCN(c2ccncc2)CC1 (stereo not shown)

>  <Metric Name>
inhibition at 10 µM

>  <Measured Value>
99

$$$$
>  <Molecule>
Cc1cc(N2CCC(N(C)C(=O)c3ccc4c(c3)C(N(C)C(=O)c3cnccc3C(F)(F)F)CC4)CC2)cc(C)n1 (stereo not shown)

>  <Metric Name>
inhibition at 10 µM

>  <Measured Value>
95

$$$$
>  <Molecule>
CN(C(=O)c1ccc2c(c1)C(NC(=O)C1CCCCC1)CCC2)C1CCN(c2ccncc2)CC1 (stereo not shown)

>  <Metric Name>
inhibition at 10 µM

>  <Measured Value>
98

$$$$
